These entries and their values trace back to ChEMBL document CHEMBL1914306.

Target: Monoglyceride lipase (Homo sapiens) (UniProt Q99685)
Sequence (Q99685 whole entry): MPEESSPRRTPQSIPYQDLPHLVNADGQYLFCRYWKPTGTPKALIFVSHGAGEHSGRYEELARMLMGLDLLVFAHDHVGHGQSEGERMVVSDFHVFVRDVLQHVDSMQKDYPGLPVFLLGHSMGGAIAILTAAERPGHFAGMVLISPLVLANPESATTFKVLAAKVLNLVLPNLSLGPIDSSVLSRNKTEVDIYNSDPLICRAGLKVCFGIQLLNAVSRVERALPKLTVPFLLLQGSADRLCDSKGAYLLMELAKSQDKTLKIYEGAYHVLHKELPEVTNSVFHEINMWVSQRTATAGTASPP
Test: Inhibition of human recombinant MAGL assessed as remaining activity at 10 uM after 10 mins by spectrophotometry relative to control
readoutLabel: Activity (%)

Incoming: Report Activity for `CC(C)[C@@H]1CC[C@@H](C)C[C@H]1OC(=O)Nc1cccc(-c2ccccc2)c1` tested on Monoglyceride lipase (Homo sapiens) (UniProt Q99685).
Outgoing: 101

Incoming: Report Activity for `O=C(Nc1cccc(-c2ccccc2)c1)OC1CCCCCCC1` tested on Monoglyceride lipase (Homo sapiens) (UniProt Q99685).
Outgoing: 92

Incoming: Report Activity for `O=C(Nc1cccc(-c2ccccc2)c1)OC1CCCCCC1` tested on Monoglyceride lipase (Homo sapiens) (UniProt Q99685).
Outgoing: 71

(1) S=C(Nc1cccc(-c2ccccc2)c1)NC1CCCCC1
(2) O=C(Nc1cccc(-c2ccc(O)cc2)c1)OC1CCCCC1
Incoming: Select the item with the higher value of Activity from the options 1 and 2 listed. The response must carry the label of the picked entry.
Outgoing: 1
(1: 76%, 2: 46%)
